src = the supplement of paper PMC7877785

Please respond with reported self-splicing fitness (ln) for every item in the list.
Test: self-splicing fitness, log relative to wild type (ln ratio); higher = more splicing; Tetrahymena group I intron in knt gene, E. coli kanamycin selection, DiMSum; sequences stand for … in CUCUCU…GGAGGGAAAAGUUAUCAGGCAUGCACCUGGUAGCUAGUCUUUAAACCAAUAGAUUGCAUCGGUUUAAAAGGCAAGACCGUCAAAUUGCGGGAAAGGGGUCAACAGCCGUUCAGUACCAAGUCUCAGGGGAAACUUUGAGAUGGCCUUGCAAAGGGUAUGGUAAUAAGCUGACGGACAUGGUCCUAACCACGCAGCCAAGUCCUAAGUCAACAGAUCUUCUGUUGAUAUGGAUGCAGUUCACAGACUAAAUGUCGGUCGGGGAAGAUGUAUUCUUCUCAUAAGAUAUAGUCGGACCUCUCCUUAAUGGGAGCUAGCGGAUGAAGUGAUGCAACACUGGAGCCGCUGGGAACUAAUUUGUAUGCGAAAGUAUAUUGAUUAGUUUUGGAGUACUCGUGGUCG;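 also: selection with 25 µg/mL kanamycin versus none on LB agar overnight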
Conditions: 30 °C

self-splicing fitness (ln) in this record for `ACUUAGCAAUAUUACGGCGC` : -0.406

Noted for `CACGAGCAAUAUUACGCCCG` : its self-splicing fitness (ln) reads -1.88

self-splicing fitness (ln) in this record for `GGCUAGCAAUAUUACGGGGG` : -3.9

response.value for `GCCCAGCAAUAUUACGAUCG` (field: self-splicing fitness (ln)) = -3.49

# sequence `AAAGAGCAAUAUUACGGAGG` ; its self-splicing fitness (ln) = -3.48

Lookup result for `AGCUAGCAAUAUUACGCGUU` ; measured self-splicing fitness (ln): -2.62

# self-splicing fitness (ln) of `CAGGAGCAAUAUUACGUAGG` = -0.929

Summary for this sequence, `CGUAAGCAAUAUUACGGGUG` : self-splicing fitness (ln) is -1.64

Measured self-splicing fitness (ln) of `UGCAAGCAAUAUUACGCAUA` : -2.59

Record summary for `GACCAGCAAUAUUACGUGGG` : reported self-splicing fitness (ln) = -3.64

The sequence listed as `UCAGAGCAAUAUUACGCGCA` has a reported self-splicing fitness (ln) of -1.19

What the record says about `UCGCAGCAAUAUUACGGACG` : self-splicing fitness (ln) is -1.44

Value of measured self-splicing fitness (ln) for the entry `AGAUAGCAAUAUUACGUGUU` : -2.97

Record `GUGCAGCAAUAUUACGUAAU` . Reported self-splicing fitness (ln): -0.833

Sample `UACUAGCAAUAUUACGAGAG` ; self-splicing fitness (ln) observed: -2.94

Record `CCCUAGCAAUAUUACGCUAG` . Reported self-splicing fitness (ln): -4.18

Form: sequence = `GAACAGCAAUAUUACGUGGU` ; self-splicing fitness (ln) = -3.12

Record `AAAGAGCAAUAUUACGGGCA` , field self-splicing fitness (ln): -2.45

self-splicing fitness (ln) reported for this sequence `AUUGAGCAAUAUUACGAAAA` : -2.45

The sequence listed as `UGGUAGCAAUAUUACGUAAA` shows self-splicing fitness (ln) equal to -1.01

Record `CCGUAGCAAUAUUACGCAGC` , field self-splicing fitness (ln): -3.54

// recorded self-splicing fitness (ln) for `CAGGAGCAAUAUUACGGAGA` : -2.81

The sequence listed as `CGUGAGCAAUAUUACGGCAG` has a reported self-splicing fitness (ln) of -0.858

The recorded self-splicing fitness (ln) for entry `GGAAAGCAAUAUUACGCCCG` equals -0.767

Looking up `UGAUAGCAAUAUUACGCAUA` , I found its self-splicing fitness (ln) recorded as -2.13

For record `UACCAGCAAUAUUACGAGAA` the listed self-splicing fitness (ln) is -1.72

get_value(item= `GUAAAGCAAUAUUACGCAGC` , readout=self-splicing fitness (ln)) returns -2.42

# sequence `UAGAAGCAAUAUUACGAUAC` ; its self-splicing fitness (ln) = -2.87

The reported self-splicing fitness (ln) of the sequence `ACUUAGCAAUAUUACGCGAC` was -2.91

Form: sequence = `AGACAGCAAUAUUACGGCUU` ; self-splicing fitness (ln) = -0.243

self-splicing fitness (ln) measured on `CACUAGCAAUAUUACGCAAG` = -2.39

// sample `UUUCAGCAAUAUUACGCAGA` , its self-splicing fitness (ln) was -1.32

Input `GCCAAGCAAUAUUACGGCCU` . Output self-splicing fitness (ln): -3.86

The reported self-splicing fitness (ln) of the sequence `CAGGAGCAAUAUUACGCUAG` was -1.28

====

Experiment: self-splicing fitness, log relative to wild type (ln ratio); higher = more splicing; Tetrahymena group I intron in knt gene, E. coli kanamycin selection, DiMSum; sequences stand for … in CUCUCU…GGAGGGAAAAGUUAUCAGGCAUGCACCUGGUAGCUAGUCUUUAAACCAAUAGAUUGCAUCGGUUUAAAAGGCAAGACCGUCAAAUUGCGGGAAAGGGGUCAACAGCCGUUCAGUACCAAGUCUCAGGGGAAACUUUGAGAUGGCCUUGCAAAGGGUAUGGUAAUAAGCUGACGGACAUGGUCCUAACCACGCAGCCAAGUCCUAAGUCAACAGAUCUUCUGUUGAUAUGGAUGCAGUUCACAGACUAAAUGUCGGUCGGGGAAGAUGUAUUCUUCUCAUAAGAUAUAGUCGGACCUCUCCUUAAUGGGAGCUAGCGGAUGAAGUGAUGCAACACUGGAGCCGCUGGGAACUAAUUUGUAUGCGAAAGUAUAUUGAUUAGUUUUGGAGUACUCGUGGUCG
Conditions: 30 °C
measured.parameter: self-splicing fitness (ln)

// self-splicing fitness (ln) value for `UCUGAGCAAUAUUACGAAAG` : -2.21

Data point: `AACCAGCAAUAUUACGCGCA` ; self-splicing fitness (ln) = -0.111

Entry `UCCAAGCAAUAUUACGGCCU` — recorded self-splicing fitness (ln) = -2.33

Entry `UGCUAGCAAUAUUACGCGUG` , self-splicing fitness (ln) reported as -0.934

The sequence identified as `CCUGAGCAAUAUUACGCAGU` registered its self-splicing fitness (ln) at -2.91

Looking up `CCAUAGCAAUAUUACGGGCA` , I see its self-splicing fitness (ln) listed as -3.32

Please fill in: self-splicing fitness (ln) reported for `GACAAGCAAUAUUACGGGAU` = -2.65

sequence `CCUAAGCAAUAUUACGACUC` , self-splicing fitness (ln) observed: -3.42

Measured self-splicing fitness (ln) of `GCAUAGCAAUAUUACGGCAU` : -1.21

Given item `CUAGAGCAAUAUUACGCCUU` , the value recorded as its self-splicing fitness (ln) is -3.42

# self-splicing fitness (ln) (sequence: `GAUCAGCAAUAUUACGGAUA` ) is -0.42

Entry `GGCCAGCAAUAUUACGGUGG` , self-splicing fitness (ln) reported as -2.52

get_value(item= `AAAAAGCAAUAUUACGCACG` , readout=self-splicing fitness (ln)) returns -1.4

Entry `GCUAAGCAAUAUUACGGAAA` — recorded self-splicing fitness (ln) = -1.48

# self-splicing fitness (ln) (sequence: `GCUAAGCAAUAUUACGGCCU` ) is -1.89

Briefly, self-splicing fitness (ln) measured for `UGAGAGCAAUAUUACGCAAG` : -3.21
